system: HOP-62; test: NCI tumour cell line growth inhibition, 48 h
Calls of active or inactive are those of the source. No stated cut-off is given here; in the data, active = GI50 up to about 1.1 µM and inactive = higher.
Documented GI50 across a set of compounds

>  <compound>
O=C(Nc1ccc(Sc2ccc(/N=N/c3c(O)c(S(=O)(=O)O)cc4cc(S(=O)(=O)O)ccc34)cc2)cc1)c1ccc(/N=N/c2c(O)c(S(=O)(=O)O)cc3cc(S(=O)(=O)O)ccc23)cc1

>  <GI50>
88.1 µM (inactive)

$$$$
>  <compound>
CCOC(=O)C(C(=O)OCC)=C1NC2(c3ccccc3Nc3ccc(C)cc32)C(C(=O)OC)S1 (stereo not given)

>  <GI50>
80 µM (inactive)

$$$$
>  <compound>
CN(C)CCSc1nccc(-c2cc3ccccc3s2)n1

>  <GI50>
23.8 µM (inactive)

$$$$
>  <compound>
CCOc1ccc(NC(=O)C(=O)C(C(=O)c2ccc3ccccc3c2)C2OC(=O)c3ccccc32)cc1 (stereo not given)

>  <GI50>
17.5 µM (inactive)

$$$$
>  <compound>
O=[N+]([O-])c1oc2ccc3ccccc3c2c1CCO

>  <GI50>
16.6 µM (inactive)

$$$$
>  <compound>
O=C(Nc1nc2ccccc2s1)c1cc([N+](=O)[O-])ccc1Cl

>  <GI50>
13.6 µM (inactive)

$$$$
>  <compound>
CCc1n[nH]c(=O)n1/N=C/c1ccccc1O

>  <GI50>
> 100 µM (inactive)

$$$$
>  <compound>
O=C1C(Cl)C(c2ccc(Cl)cc2)N1n1cnc2ccccc2c1=O (stereo not given)

>  <GI50>
> 100 µM (inactive)

$$$$
>  <compound>
CNS(=O)(=O)NNS(=O)(=O)c1cccc([N+](=O)[O-])c1

>  <GI50>
> 100 µM (inactive)

$$$$
>  <compound>
COc1cc(C2C(Cl)C(=O)N2c2c(C)n(C)n(-c3ccccc3)c2=O)ccc1O (stereo not given)

>  <GI50>
23.7 µM (inactive)

$$$$

###

test system: MDA-N; test: NCI tumour cell line growth inhibition, 48 h
Activity calls are given as the source filed them. Rule as the data show it: active = GI50 up to about 1.1 µM and inactive = higher.
Possible outcomes: active, inactive

>  <compound>
COc1cc(C2c3cc4c(cc3[C@@H](Nc3cccc(O)c3)C3COC(=O)[C@H]23)OCO4)cc(OC)c1O (stereo not given in full)

>  <answer_label>
inactive

$$$$
>  <compound>
CC(=O)[C@@]1(O)CC[C@H]2[C@@H]3C[C@H](C)C4=CC(=O)CC[C@]4(C)[C@H]3[C@@H](O)C[C@@]21C

>  <answer_label>
inactive

$$$$
>  <compound>
O=C(O)CCNc1ccccc1C(=O)O

>  <answer_label>
inactive

$$$$
>  <compound>
CC(=O)OC1CCC2(C)C(=CCC3C4CCC5(OC6CC(C)CN(C(C)=O)C6C5C)C(C)=C4C(=O)C32)C1 (stereo not given)

>  <answer_label>
inactive

$$$$
>  <compound>
CN(C)CCNC(=O)c1cccc2c(NC(CCC(N)=O)C(=O)O)c3ccccc3nc12 (stereo not given)

>  <answer_label>
inactive

$$$$
>  <compound>
CC1=NN(c2ccc(S(=O)(=O)O)cc2)C2(C1)SCC(=O)N2c1nc2ccccc2s1 (stereo not given)

>  <answer_label>
inactive

$$$$
>  <compound>
Cc1c(/N=N/c2ccc([N+](=O)[O-])cc2)nc2scc(-c3ccccc3)n12

>  <answer_label>
inactive

$$$$
>  <compound>
O=C1NC(N2CCCCC2)=N/C1=C\c1cccs1

>  <answer_label>
inactive

$$$$
>  <compound>
O=C1NC(Nc2ccccc2)=NC(C(F)(F)F)(C(F)(F)F)N1

>  <answer_label>
inactive

$$$$
>  <compound>
C(=N\Nc1nnc2c(n1)[nH]c1ccccc12)/c1cccnc1

>  <answer_label>
inactive

$$$$
>  <compound>
Cn1c(=O)c2nc(CCCCC(=O)O)[nH]c2n(C)c1=O

>  <answer_label>
inactive

$$$$
>  <compound>
C/C(=C\CBr)CCC(Br)C(C)(C)Br (stereo not given)

>  <answer_label>
inactive

$$$$
>  <compound>
CCOC(=O)C(Cc1ccc(OC(=O)c2ccc(OC)cc2OC)cc1)NC(=O)C(F)(F)F (stereo not given)

>  <answer_label>
inactive

$$$$
>  <compound>
O=C(O)CC(NC(=O)Nc1ccc([N+](=O)[O-])cc1)C(=O)Nc1ccc([N+](=O)[O-])cc1 (stereo not given)

>  <answer_label>
inactive

$$$$
>  <compound>
CC(=O)c1c(O)nnc(-c2ccc(Cl)cc2)c1-c1ccc(Cl)cc1

>  <answer_label>
inactive

$$$$
>  <compound>
COc1cc([C@@H]2c3cc(O)c(OC)cc3C=C(C(N)=O)[C@H]2C(N)=O)ccc1O

>  <answer_label>
inactive

$$$$
>  <compound>
Cn1c(=O)cc(/N=N\c2ccc(Cl)c(Cl)c2)[nH]c1=O

>  <answer_label>
inactive

$$$$
>  <compound>
COc1ccc(C2=NN(C(=O)c3ccccc3)C(O)(c3cc(F)c(Cl)cc3Cl)C2)cc1OC (stereo not given)

>  <answer_label>
inactive

$$$$
>  <compound>
Cc1ccc(S(=O)(=O)Nc2nnc(S(N)(=O)=O)s2)cc1

>  <answer_label>
inactive

$$$$
>  <compound>
N#Cc1[nH]c(=O)n(-c2ccccc2)c1N

>  <answer_label>
inactive

$$$$
>  <compound>
COC(=O)C1C(O)C(C(=O)OC)C(C)N(C)C1C (stereo not given)

>  <answer_label>
inactive

$$$$
>  <compound>
CC[C@@]1(OC(=O)CCC(=O)O)C(=O)OCc2c1cc1n(c2=O)Cc2cc3ccccc3nc2-1

>  <answer_label>
active

$$$$
>  <compound>
CC1=C(O)C(=O)c2ccccc2C1=O

>  <answer_label>
inactive

$$$$
>  <compound>
C[C@@H]1CCC2[C@@H](C)[C@@H](OCCO[C@H]3OC4O[C@@]5(C)CCC6[C@H](C)CCC([C@H]3C)[C@@]46OO5)OC3O[C@@]4(C)CCC1[C@]32OO4 (stereo not given in full)

>  <answer_label>
active

$$$$
>  <compound>
COc1ccc(/C=C2/C(=O)C(c3ccccc3)N(c3ccccc3)C2=O)cc1OC (stereo not given)

>  <answer_label>
inactive

$$$$
>  <compound>
C/C(=N\NC(N)=O)C(CN1CCOCC1)C(c1ccccc1)c1c(O)c2ccccc2oc1=O (stereo not given)

>  <answer_label>
inactive

$$$$
>  <compound>
COC(=O)[C@H](Cc1ccccc1)NC(=O)c1ccc(CNC(=O)/C=C/c2cccc(Oc3ccccc3)c2)cc1

>  <answer_label>
inactive

$$$$
>  <compound>
COP(=O)(/C=C/c1cc(C(=O)OCc2ccccc2)n(S(=O)(=O)c2ccccc2)c1)OC

>  <answer_label>
inactive

$$$$
>  <compound>
O=C1Nc2ccc(S(=O)(=O)O)cc2/C1=C1/Nc2ccc(Br)cc2C1=O

>  <answer_label>
inactive

$$$$
>  <compound>
COc1cc(C2C(Cl)C(=O)N2c2c(C)n(C)n(-c3ccccc3)c2=O)ccc1O (stereo not given)

>  <answer_label>
inactive

$$$$
>  <compound>
COC(=O)[C@@H]1Cc2ccc(OC)c(c2)OCCC(=O)N1

>  <answer_label>
inactive

$$$$
>  <compound>
O=C(O)c1ccc2c(O)c(O)ccc2c1

>  <answer_label>
inactive

$$$$
>  <compound>
Cc1ncc([N+](=O)[O-])n1CCNS(=O)(=O)CCCn1ccnc1[N+](=O)[O-]

>  <answer_label>
inactive

$$$$
>  <compound>
CC(=O)NC(C)(C)C1CCC(C)=C(c2ccccc2)C1 (stereo not given)

>  <answer_label>
inactive

$$$$
>  <compound>
O=C1CC2(CCC(O)(c3cccs3)C(C(=O)c3cccs3)C2)C(=O)c2ccccc2N1 (stereo not given)

>  <answer_label>
inactive

$$$$
>  <compound>
CC(=O)O/C(=C1\C[C@H]2[C@@H]3CC=C4C[C@@H](OC(C)=O)CC[C@]4(C)[C@H]3CC[C@]2(C)C1=O)C(F)(F)F

>  <answer_label>
inactive

$$$$
>  <compound>
Cc1ccc(/N=N/c2c(O)ccc3ccccc23)cc1

>  <answer_label>
inactive

$$$$
>  <compound>
Oc1ccc(/C=C/c2cc(O)cc3c2C(c2cc(O)cc(O)c2)C(c2ccc(O)c(O)c2)O3)cc1 (stereo not given)

>  <answer_label>
inactive

$$$$
>  <compound>
CC(NC(=O)C(N)Cc1ccc(O)cn1)C(=O)O (stereo not given)

>  <answer_label>
inactive

$$$$
>  <compound>
CCOC(=O)C(C(=O)OCC)=C1NC2(c3ccccc3Nc3ccc(C)cc32)C(C(=O)OC)S1 (stereo not given)

>  <answer_label>
inactive

$$$$
